# Subject of test: KDR (h) (VEGFR2) (Homo sapiens (Human), UniProt P35968)
# Sequence (P35968 20-1356): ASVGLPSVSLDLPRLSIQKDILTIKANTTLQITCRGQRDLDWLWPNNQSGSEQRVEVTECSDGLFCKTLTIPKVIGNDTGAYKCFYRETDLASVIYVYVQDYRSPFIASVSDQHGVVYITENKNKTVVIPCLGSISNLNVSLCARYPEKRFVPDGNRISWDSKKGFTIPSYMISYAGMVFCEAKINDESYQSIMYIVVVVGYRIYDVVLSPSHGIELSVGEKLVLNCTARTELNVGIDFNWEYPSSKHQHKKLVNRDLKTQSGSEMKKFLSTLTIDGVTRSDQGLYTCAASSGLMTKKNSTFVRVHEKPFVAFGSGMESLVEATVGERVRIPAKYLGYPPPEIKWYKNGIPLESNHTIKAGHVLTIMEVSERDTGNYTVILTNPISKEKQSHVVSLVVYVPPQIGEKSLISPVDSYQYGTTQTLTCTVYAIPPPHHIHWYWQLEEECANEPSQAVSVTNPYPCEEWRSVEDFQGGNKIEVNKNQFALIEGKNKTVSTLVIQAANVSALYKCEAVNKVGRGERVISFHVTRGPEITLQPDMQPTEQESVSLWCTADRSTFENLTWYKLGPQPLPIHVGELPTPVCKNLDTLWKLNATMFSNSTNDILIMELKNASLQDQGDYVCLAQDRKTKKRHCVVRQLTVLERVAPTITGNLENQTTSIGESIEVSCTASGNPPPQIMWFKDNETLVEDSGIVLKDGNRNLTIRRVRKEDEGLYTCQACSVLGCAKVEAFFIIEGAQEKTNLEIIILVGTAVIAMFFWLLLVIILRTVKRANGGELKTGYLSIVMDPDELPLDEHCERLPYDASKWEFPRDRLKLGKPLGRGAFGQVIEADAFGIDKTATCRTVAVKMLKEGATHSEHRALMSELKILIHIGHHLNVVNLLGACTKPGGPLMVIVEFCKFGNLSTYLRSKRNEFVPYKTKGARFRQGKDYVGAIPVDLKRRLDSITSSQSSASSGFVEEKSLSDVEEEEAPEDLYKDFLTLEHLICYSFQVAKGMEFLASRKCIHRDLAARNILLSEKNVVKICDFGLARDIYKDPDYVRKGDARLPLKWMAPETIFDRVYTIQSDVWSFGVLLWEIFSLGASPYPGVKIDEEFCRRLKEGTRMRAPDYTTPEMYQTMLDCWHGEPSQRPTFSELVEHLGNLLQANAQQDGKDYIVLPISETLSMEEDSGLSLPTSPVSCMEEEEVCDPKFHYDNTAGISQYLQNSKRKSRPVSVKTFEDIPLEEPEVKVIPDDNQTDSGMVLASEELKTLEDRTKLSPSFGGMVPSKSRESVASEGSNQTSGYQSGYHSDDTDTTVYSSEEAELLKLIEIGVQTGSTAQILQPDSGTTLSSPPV
# Assay text: KDR (VEGFR2) (enzymatic assay), TR-FRET
# Type: biochemical
# Experimental parameters: 3 μM ATP; read-out: VEGFR KDR pIC50 (converted)
Test readout: IC50

{"columns": ["Record smiles", "Subject of test", "Endpoint value"],
 "data": [
  ["COc1cc(OC)cc(N(CC2CC2)c2ncc3ncc(-c4ccccc4)nc3n2)c1", "KDR (h) (VEGFR2) (Homo sapiens (Human), UniProt P35968)", "> 1000 nM"],
  ["COc1cc(OC)c(F)c(N(Cc2ncc[nH]2)c2ncc3ncc(-c4cnn(C)c4)nc3n2)c1", "KDR (h) (VEGFR2) (Homo sapiens (Human), UniProt P35968)", "251 nM"],
  ["COc1cc(OC)c(F)c(N(C[C@@H]2CCC(=O)N2)c2ncc3ncc(-c4cnn(C)c4)nc3n2)c1", "KDR (h) (VEGFR2) (Homo sapiens (Human), UniProt P35968)", "> 1000 nM"]
]}

Lookup: Check KDR (h) (VEGFR2) (Homo sapiens (Human), UniProt P35968) data and give IC50 for COc1cc(OC)c(F)c(N(Cc2nccn2S(=O)(=O)N(C)C)c2ncc3ncc(-c4cnn(C)c4)nc3n2)c1F .
Found: 100 nM

Lookup: Check KDR (h) (VEGFR2) (Homo sapiens (Human), UniProt P35968) data and give IC50 for COc1cc(OC)c(F)c(N(Cc2ncc[nH]2)c2ncc3ncc(-c4cnn(C)c4)nc3n2)c1F .
Found: 25.1 nM

###

# Subject of test: KDR (h) (VEGFR2) (Homo sapiens (Human), UniProt P35968)
# Assay text: KDR (VEGFR2) (enzymatic assay), TR-FRET
# Type: biochemical
# Experimental parameters: 3 μM ATP; read-out: VEGFR KDR pIC50 (converted)
IC50 reference
Form entry: value (nM) — number only.

Example cases with answers are listed next.
{"columns": ["Record smiles", "Subject of test", "Test readout", "Endpoint value"],
 "data": [
  ["COc1cc(OC)c(F)c(N(C[C@@H]2CCC(=O)N2)c2ncc3ncc(-c4cnn(C)c4)nc3n2)c1F", "KDR (h) (VEGFR2) (Homo sapiens (Human), UniProt P35968)", "IC50", 794],
  ["COc1cc(OC)c(F)c(N(C[C@H]2CCC(=O)N2)c2ncc3ncc(-c4cnn(C)c4)nc3n2)c1", "KDR (h) (VEGFR2) (Homo sapiens (Human), UniProt P35968)", "IC50", 1000]
]}

Let us examine a further case.
Lookup: Check KDR (h) (VEGFR2) (Homo sapiens (Human), UniProt P35968) data and give IC50 for CNCCN(c1ncc2ncc(-c3cnn(C)c3)nc2n1)c1c(F)c(OC)cc(OC)c1F .
Found: 398

Just for reference, patent US10272087B2 is where these values come from.
